# SYSTEM_NAME: T1, human Sdc2 (human, UniProt P34741 19-144, limits assumed)
# T1 construct: Antigen of the Octet tandem binning, loaded on biosensors at 100 nM; also called huSdc2; hSdc2
# TEST_DESCRIPTION: Octet tandem binning; saturating Ab m6 19838-20H19-AA (marked non-binding ligand)
raw competing-Ab binding signal by entry:

What does the record list as raw competing-Ab binding signal for R4M-P3-A12 (antibody, human IgG1, kappa, V domains shown) VH: EVQLVESGGGVVQPGGSLRLSCAASGFTFSDHYMSWIRQAPGKGLEWVSYLSGSGTSIYYADSVKGRFTISRDNAKKSLYLQMNSLRAEDTAVYYCARVGPAAGNAFDIWGQGTMVTVSS VL: QSVLTQPPSASGTPGQRVTISCSGSSSNIGSNYVYWYQQLPGTAPKLLIYRNNQRPSGVPDRFSGSKSGTSASLAITGLQAEDEADYYCQSYDSSLSGVVFGGGTKLTVLR ? 0.165

Which raw competing-Ab binding signal is reported for this binder? R4M-P3-E06 (antibody, human IgG1, kappa, V domains shown, human IgG1 kappa from the phage campaign) VH: EVQLVESGGGVVQPGGSLRLSCAASGFTFSNYGMHWVRQAPGKGLEWVATISYDGTKKYYPDSVRGRFTISRDNSENMLYLQMDSLRLEDTAVIYCAKDLVSGSRYGFAFDSWGPGTLVTVSS VL: DIVMTQSPLSLPVTLGQPASISCRSSQSLVHSDGNTYLNWFQQRPGQSPRRLIYKVSNRDSGVPDRFSGTGSGTDFTLKISRVEADDVGVYYCMQGTHWPPIFGQGTRLEIKR 0.251

src = patent US20250282885A1
